Study system: Proteinase-activated receptor 1 (Homo sapiens)
Protocol notes: Displacement of [3H]haTRAP from PAR1 in human platelet membranes after 60 mins by scintillation counting analysis
Reported IC50 values follow for various compounds
Kindly format the answer as number then unit.

Worked cases, IC50 given:
1. CC1(OC(N)=O)C[C@@H]2CCCC[C@@H]2[C@H]1/C=C/c1ccc(-c2cccc(F)c2)cn1 (mixture of isomers) ... 2.7 nM
2. CS(=O)(=O)NC1C[C@@H]2CCCC[C@@H]2[C@H]1/C=C/c1ccc(-c2cccc(F)c2)cn1 (mixture of isomers) ... 50 nM

Pending compound:
Exam item: I am curious: what IC50 value has been reported for Fc1cccc(-c2ccc(/C=C/[C@H]3C(OCc4ccccc4)C[C@@H]4CCCC[C@@H]43)nc2)c1 (mixture of isomers) ?
Marked response: 280 nM

====

Protocol notes: Metabolic stability in human liver microsomes assessed as time when 50% of compound remains
Assay type: ADME
Condition set: read-out: Time
Endpoint name: half-life (h)
Value expressed in h; do not type the unit.

Some solved cases for reference:
1. CC1(OC(N)=O)C[C@@H]2CCCC[C@@H]2[C@H]1/C=C/c1ccc(-c2cccc(F)c2)cn1 (mixture of isomers) ... 0.0717
2. CCOC(=O)N[C@@H]1CC[C@@H]2[C@@H](C1)C[C@H]1C(=O)O[C@H](C)[C@H]1[C@H]2/C=C/c1ccc(-c2cccc(F)c2)cn1 ... 1.39

Note: attention shifts to another entry.
Exam item: So what's the measured half-life for this one? CS(=O)(=O)NC1C[C@@H]2CCCC[C@@H]2[C@H]1/C=C/c1ccc(-c2cccc(F)c2)cn1 (mixture of isomers)
Marked response: 4.55

====

Protocol notes: Metabolic stability in rat liver microsomes assessed as time when 50% of compound remains
Format: ADME
Condition set: read-out: Time
Property: half-life; scope: individual compounds
Quick note: number first, unit second.

1. O=C1NCC2(C[C@@H]3CCCC[C@@H]3[C@H]2/C=C/c2ccc(-c3cccc(F)c3)cn2)O1 (mixture of isomers) ... 6.7 min
2. CS(=O)(=O)OC1C[C@@H]2CCCC[C@@H]2[C@H]1/C=C/c1ccc(-c2cccc(F)c2)cn1 (mixture of isomers) ... 6.5 min
3. CC1(OC(N)=O)C[C@@H]2CCCC[C@@H]2[C@H]1/C=C/c1ccc(-c2cccc(F)c2)cn1 (mixture of isomers) ... 5.8 min
4. CCOC(=O)N[C@@H]1CC[C@@H]2[C@@H](C1)C[C@H]1C(=O)O[C@H](C)[C@H]1[C@H]2/C=C/c1ccc(-c2cccc(F)c2)cn1 ... 32.4 min
5. CC(=O)N(C)C1C[C@@H]2CCCC[C@@H]2[C@H]1/C=C/c1ccc(-c2cccc(F)c2)cn1 (mixture of isomers) ... 5.2 min

Exam item: What value of measured half-life is listed for CN(C1C[C@@H]2CCCC[C@@H]2[C@H]1/C=C/c1ccc(-c2cccc(F)c2)cn1)S(C)(=O)=O (mixture of isomers) ?
Marked response: 2.2 min

Exam item: Give its half-life value. Item: Fc1cccc(-c2ccc(/C=C/[C@@H]3[C@H]4CCCC[C@H]4CC34OCCO4)nc2)c1 (racemic)
Marked response: 3.4 min

Exam item: Would you kindly share the measured half-life for CS(=O)(=O)NC1C[C@@H]2CCCC[C@@H]2[C@H]1/C=C/c1ccc(-c2cccc(F)c2)cn1 (mixture of isomers) ?
Marked response: 105 min

====

Each entry below carries its recorded viability at 24 h, 30 µM.
Protocol notes: Cytotoxicity against human HepG2 cells assessed as ATP contents at 30 uM after 24 hrs relative to control
Assay type: cell-based
Condition set: read-out: Activity
Unit % implied. Number only.

Solved cases (2 shown):
1) CC1(OC(N)=O)C[C@@H]2CCCC[C@@H]2[C@H]1/C=C/c1ccc(-c2cccc(F)c2)cn1 (mixture of isomers) ... 99
2) CN(C1C[C@@H]2CCCC[C@@H]2[C@H]1/C=C/c1ccc(-c2cccc(F)c2)cn1)S(C)(=O)=O (mixture of isomers) ... 95

Exam item: May I ask what viability at 24 h, 30 µM has been recorded for Fc1cccc(-c2ccc(/C=C/[C@@H]3[C@H]4CCCC[C@H]4CC34OCCO4)nc2)c1 (racemic) ?
Marked response: 97

Exam item: Using the record for CS(=O)(=O)OC1C[C@@H]2CCCC[C@@H]2[C@H]1/C=C/c1ccc(-c2cccc(F)c2)cn1 (mixture of isomers) , report its viability at 24 h, 30 µM.
Marked response: 94

Exam item: # get_value(readout='viability at 24 h, 30 µM', item= O=C1NCC2(C[C@@H]3CCCC[C@@H]3[C@H]2/C=C/c2ccc(-c3cccc(F)c3)cn2)O1 (mixture of isomers) )
Marked response: 101

Exam item: Can you share its viability at 24 h, 30 µM? I mean this molecule: CC(=O)N(C)C1C[C@@H]2CCCC[C@@H]2[C@H]1/C=C/c1ccc(-c2cccc(F)c2)cn1 (mixture of isomers)
Marked response: 98

Exam item: Query (molecule): CCOC(=O)N[C@@H]1CC[C@@H]2[C@@H](C1)C[C@H]1C(=O)O[C@H](C)[C@H]1[C@H]2/C=C/c1ccc(-c2cccc(F)c2)cn1 [VORAPAXAR] ; field requested: viability at 24 h, 30 µM
Marked response: 102

====

Protocol notes: Metabolic stability in human liver microsomes assessed as time when 50% of compound remains
Type: ADME
Condition set: read-out: Time
# half-life per record follows
Quick note: give the figure in min, leave out the unit.

Worked examples follow.
1) CC(=O)N(C)C1C[C@@H]2CCCC[C@@H]2[C@H]1/C=C/c1ccc(-c2cccc(F)c2)cn1 (mixture of isomers) ... 5.6
2) CS(=O)(=O)OC1C[C@@H]2CCCC[C@@H]2[C@H]1/C=C/c1ccc(-c2cccc(F)c2)cn1 (mixture of isomers) ... 3.5
3) CN(C1C[C@@H]2CCCC[C@@H]2[C@H]1/C=C/c1ccc(-c2cccc(F)c2)cn1)S(C)(=O)=O (mixture of isomers) ... 2.5
4) O=C1NCC2(C[C@@H]3CCCC[C@@H]3[C@H]2/C=C/c2ccc(-c3cccc(F)c3)cn2)O1 (mixture of isomers) ... 4.4

Now take the following compound into account.
Exam item: Which half-life value belongs to Fc1cccc(-c2ccc(/C=C/[C@@H]3[C@H]4CCCC[C@H]4CC34OCCO4)nc2)c1 (racemic) ?
Marked response: 4.5

====

Study system: Proteinase-activated receptor 1 (Homo sapiens, UniProt P25116)
Sequence (P25116 whole entry): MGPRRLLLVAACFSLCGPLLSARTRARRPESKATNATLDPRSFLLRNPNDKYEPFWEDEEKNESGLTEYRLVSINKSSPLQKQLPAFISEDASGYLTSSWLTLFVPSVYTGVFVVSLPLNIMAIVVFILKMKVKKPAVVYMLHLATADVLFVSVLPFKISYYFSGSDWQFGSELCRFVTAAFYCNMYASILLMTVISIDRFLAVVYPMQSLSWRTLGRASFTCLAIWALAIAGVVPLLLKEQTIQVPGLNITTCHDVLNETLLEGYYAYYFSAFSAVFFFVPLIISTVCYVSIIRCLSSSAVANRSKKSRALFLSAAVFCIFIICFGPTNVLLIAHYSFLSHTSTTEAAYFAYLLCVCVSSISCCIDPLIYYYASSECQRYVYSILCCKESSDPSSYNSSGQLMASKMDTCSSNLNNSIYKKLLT
Protocol notes: Displacement of [3H]haTRAP from PAR1 in human platelet membranes after 60 mins by scintillation counting analysis
Endpoint name: pIC50
# pIC50 is unitless: minus log10 of the molar concentration; print number only

Exam item: Quick check: pIC50 on Proteinase-activated receptor 1 (Homo sapiens, UniProt P25116), item COC(=O)NC1C[C@@H]2CCCC[C@@H]2[C@H]1/C=C/c1ccc(-c2cccc(F)c2)cn1 (mixture of isomers) ?
Marked response: 6.01

Exam item: API: value(readout=pIC50, system=Proteinase-activated receptor 1 (Homo sapiens, UniProt P25116)) for record O=C1C[C@@H]2CCCC[C@@H]2[C@H]1/C=C/c1ccc(-c2cccc(F)c2)cn1 (racemic)
Marked response: 5.96

Exam item: # get_value(readout= pIC50, system= Proteinase-activated receptor 1 (Homo sapiens, UniProt P25116)) for CN(C)C(=S)OC1C[C@@H]2CCCC[C@@H]2[C@H]1/C=C/c1ccc(-c2cccc(F)c2)cn1 (mixture of isomers)
Marked response: 6.92

Exam item: Short answer please: pIC50, Proteinase-activated receptor 1 (Homo sapiens, UniProt P25116), entry CCOC(=O)NC1C[C@@H]2CCCC[C@@H]2[C@H]1/C=C/c1ccc(-c2cccc(F)c2)cn1 (mixture of isomers)
Marked response: 5.70

Exam item: Reported pIC50 for Proteinase-activated receptor 1 (Homo sapiens, UniProt P25116), given CC(C)(C)OC(=O)NC1C[C@@H]2CCCC[C@@H]2[C@H]1/C=C/c1ccc(-c2cccc(F)c2)cn1 (mixture of isomers) ?
Marked response: 5.11

Exam item: Recorded pIC50 for O=C(NC1C[C@@H]2CCCC[C@@H]2[C@H]1/C=C/c1ccc(-c2cccc(F)c2)cn1)C1CC1 (mixture of isomers) with Proteinase-activated receptor 1 (Homo sapiens, UniProt P25116), please?
Marked response: 6.64

Exam item: Item: CN(C1C[C@@H]2CCCC[C@@H]2[C@H]1/C=C/c1ccc(-c2cccc(F)c2)cn1)S(C)(=O)=O (mixture of isomers) Test system: Proteinase-activated receptor 1 (Homo sapiens, UniProt P25116) Read-out: pIC50 Value: ?
Marked response: 8.89

====

Study system: Proteinase-activated receptor 1 (Homo sapiens, UniProt P25116)
Protocol notes: Displacement of [3H]haTRAP from PAR1 in human platelet membranes after 60 mins by scintillation counting analysis
pIC50: −log10 of the molar value.
Is pIC50 at least 8? Then yes. If not, no.

Solved cases (2 shown):
1. CC1(O)C[C@@H]2CCCC[C@@H]2[C@H]1/C=C/c1ccc(-c2cccc(F)c2)cn1 (mixture of isomers) ... no
2. CC(=O)N(C)C1C[C@@H]2CCCC[C@@H]2[C@H]1/C=C/c1ccc(-c2cccc(F)c2)cn1 (mixture of isomers) ... yes

Exam item: Quick check: does CC(=O)OC1C[C@@H]2CCCC[C@@H]2[C@H]1/C=C/c1ccc(-c2cccc(F)c2)cn1 (mixture of isomers) have pIC50 greater than or equal to 8?
Marked response: no

Exam item: Could you verify whether the entry COC1(C)C[C@@H]2CCCC[C@@H]2[C@H]1/C=C/c1ccc(-c2cccc(F)c2)cn1 (mixture of isomers) shows pIC50 of no less than 8?
Marked response: no

Exam item: Please tell me: is the compound `CCOC(=O)N[C@@H]1CC[C@@H]2[C@@H](C1)C[C@H]1C(=O)O[C@H](C)[C@H]1[C@H]2/C=C/c1ccc(-c2cccc(F)c2)cn1` at or over 8 in terms of pIC50?
Marked response: yes

Exam item: Check if pIC50 >= 8 (inclusive). Item: OC1C[C@@H]2CCCC[C@@H]2[C@H]1/C=C/c1ccc(-c2cccc(F)c2)cn1 (mixture of isomers)
Marked response: no
